Biological target: CYP3A4 (Homo sapiens)
Experiment: Inactivation kinetics of CYP3A4 (literature data and reanalysis)
Conditions: read-out: KI (µM), Reanalysis; CYP3A4; reanalysis of literature data (refs 37-39) with two-step fit of kobs vs [I]
metric: Ki (µM)

| smiles structure | tested system | observed result |
| --- | --- | --- |
| CC/C(=C(\c1ccccc1)c1ccc(OCCNC)cc1)c1ccccc1 | CYP3A4 (Homo sapiens) | 2.5 |

---

Biological target: CYP3A4 (Homo sapiens, UniProt P08684)
Sequence (P08684 2-503): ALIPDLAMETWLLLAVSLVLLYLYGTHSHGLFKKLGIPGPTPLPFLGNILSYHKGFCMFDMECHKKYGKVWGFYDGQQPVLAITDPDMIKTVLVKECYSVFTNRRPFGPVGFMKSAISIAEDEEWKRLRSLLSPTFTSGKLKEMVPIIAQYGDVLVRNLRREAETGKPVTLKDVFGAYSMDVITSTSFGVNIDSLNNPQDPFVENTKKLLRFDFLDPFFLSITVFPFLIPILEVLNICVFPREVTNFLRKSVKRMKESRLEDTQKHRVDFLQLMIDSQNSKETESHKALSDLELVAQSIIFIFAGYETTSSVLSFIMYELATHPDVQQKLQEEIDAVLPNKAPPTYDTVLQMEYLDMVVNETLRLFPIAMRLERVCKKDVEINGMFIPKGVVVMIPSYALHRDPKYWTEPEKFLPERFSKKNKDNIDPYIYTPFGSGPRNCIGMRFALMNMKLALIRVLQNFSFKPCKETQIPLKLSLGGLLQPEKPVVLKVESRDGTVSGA
Test: Inactivation kinetics of CYP3A4 (literature data and reanalysis)
Conditions: human
metric: kinact

| compound | observed result |
| --- | --- |
| CC(C)=CCC/C(C)=C/COc1c2ccoc2cc2oc(=O)ccc12 [Bergamottin] | 0.0065 s⁻¹ |

---

Molecular target: CYP2C8 (Homo sapiens, UniProt P10632)
Sequence (P10632 1-490): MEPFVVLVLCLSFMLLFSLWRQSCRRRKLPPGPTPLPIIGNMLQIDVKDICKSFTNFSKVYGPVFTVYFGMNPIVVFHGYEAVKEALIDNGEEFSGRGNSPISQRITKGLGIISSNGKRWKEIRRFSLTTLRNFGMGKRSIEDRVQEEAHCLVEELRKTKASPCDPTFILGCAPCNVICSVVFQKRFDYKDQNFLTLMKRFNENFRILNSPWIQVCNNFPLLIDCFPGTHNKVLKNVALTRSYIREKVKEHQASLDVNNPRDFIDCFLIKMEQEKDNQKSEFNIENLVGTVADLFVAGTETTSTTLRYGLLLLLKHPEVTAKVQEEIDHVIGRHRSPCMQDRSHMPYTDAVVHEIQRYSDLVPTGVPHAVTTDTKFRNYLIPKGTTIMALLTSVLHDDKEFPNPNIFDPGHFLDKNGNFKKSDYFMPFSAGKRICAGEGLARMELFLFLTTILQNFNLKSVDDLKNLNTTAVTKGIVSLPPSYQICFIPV
Assay: Inactivation kinetics of CYP2C8 (literature data and reanalysis)
Conditions: human
pKi: −log10 of the molar value.
metric: pKi

| compound | observed result |
| --- | --- |
| NNC(=O)c1ccncc1 [Isoniazid] | 3.55 |
| NNCCc1ccccc1 [Phenelzine] | 6.08 |

---

Target: human HDAC8 (Homo sapiens, UniProt Q9BY41)
Sequence (Q9BY41 1-377): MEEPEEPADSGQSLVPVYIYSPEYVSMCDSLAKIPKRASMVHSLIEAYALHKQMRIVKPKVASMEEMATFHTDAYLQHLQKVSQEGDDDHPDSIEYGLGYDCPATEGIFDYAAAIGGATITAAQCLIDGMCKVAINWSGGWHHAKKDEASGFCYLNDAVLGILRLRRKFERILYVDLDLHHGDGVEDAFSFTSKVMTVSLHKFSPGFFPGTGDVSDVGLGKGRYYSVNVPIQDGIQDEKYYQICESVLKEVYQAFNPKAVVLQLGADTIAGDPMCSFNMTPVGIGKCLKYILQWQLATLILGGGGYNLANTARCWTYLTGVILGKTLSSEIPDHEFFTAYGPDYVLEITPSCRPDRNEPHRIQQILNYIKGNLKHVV
Experiment: Time-dependent fluorometric HDAC8 enzyme activity assay (dose-response curves after different pre-incubation times)
pIC50: −log10 of the molar value.
Listing of recorded pIC50 by entry.

| molecule | pIC50 |
| --- | --- |
| COc1ccc(CC(C#N)C(=O)O)cc1 (stereo not drawn) | 5.59 |
| COC(=O)c1ccc(/C=C(\C#N)C(=O)C(F)(F)F)cc1 | 5.38 |
| O=c1c2ccccc2[se]n1-c1ccccc1 [Ebselen, reference compound] | 7.10 |

---

Quick reference for kinact among some compounds
Biological target: CYP2C8 (Homo sapiens)
Test: Inactivation kinetics of CYP2C8 (literature data and reanalysis)
Details: human

| compound | display unit | kinact |
| --- | --- | --- |
| NNCCc1ccccc1 [Phenelzine] | s⁻¹ | 0.0035 |
| NNC(=O)c1ccncc1 [Isoniazid] | s⁻¹ | 0.0006 |

---

The entries below are paired with their reported pKi.
Target: CYP3A4 (Homo sapiens, UniProt P08684)
Test: Inactivation kinetics of CYP3A4 (literature data and reanalysis)
Conditions: human
pKi: −log10 of the molar value.

| compound | pKi |
| --- | --- |
| CC(C)=CCC/C(C)=C/COc1c2ccoc2cc2oc(=O)ccc12 | 4.92 |
| C#C[C@]1(O)CC[C@H]2[C@@H]3CCc4cc(O)ccc4[C@H]3CC[C@@]21C [Ethynyl-estradiol, reference compound] | 5.27 |

---

Target: human HDAC8 (Homo sapiens, UniProt Q9BY41)
Experiment: Time-dependent fluorometric HDAC8 enzyme activity assay (dose-response curves after different pre-incubation times)

| compound | Ki / µM |
| --- | --- |
| COc1ccc(CC(C#N)C(=O)O)cc1 (stereo not shown) [SVE27] | 0.8 |
| COC(=O)c1ccc(/C=C(\C#N)C(=O)C(F)(F)F)cc1 [SVE04] | 1.3 |
| Cc1cc(C)cc(CS(=O)(=O)c2nc(Cl)ns2)c1 [TJ-19-28] | 12 |
| Cc1cc(C)cc(CSc2nc(Cl)ns2)c1 [TJ-19-24] | 5.9 |

---

Target: human HDAC8 (Homo sapiens, UniProt Q9BY41)
Test: Time-dependent fluorometric HDAC8 enzyme activity assay (dose-response curves after different pre-incubation times)
pIC50: −log10 of the molar value.
Reported pIC50 values follow for various molecules

| molecule | tested system | pIC50 |
| --- | --- | --- |
| Cc1cc(C)cc(CSc2nc(Cl)ns2)c1 [TJ-19-24] | human HDAC8 (Homo sapiens, UniProt Q9BY41) | 5.40 to 6.40 |
| CCN1C(=O)C=CC1=O [NEM, N-ethylmaleimide, reference compound] | human HDAC8 (Homo sapiens, UniProt Q9BY41) | 4.38 to 6.15 |
| Cc1cc(C)cc(CS(=O)(=O)c2nc(Cl)ns2)c1 [TJ-19-28] | human HDAC8 (Homo sapiens, UniProt Q9BY41) | 5.52 to 6.52 |

# credit: paper PMC11171933
